Numbers sourced from patent US20060111327A1.

# Tested on: cotton ball granulation in rat
# Design: species or system Wister rats
# particulars: in vivo
measured.attribute: effect against cotton ball granulation

| compound | assayed.system | measured.attribute | result |
| --- | --- | --- | --- |
| CC(C)[C@]12OP(=O)([O-])O[C@H]1[C@]13O[C@H]1C[C@H]1C4=C(CC[C@]1(C)[C@@]31OC1[C@H]2SC#N)C(=O)OC4.[Na+] (stereo partly shown) | cotton ball granulation in rat | effect against cotton ball granulation | significant effect |
| CC(C)[C@]12O[C@H]1C1O[C@]13[C@]1(O[C@H]1C[C@H]1C4=C(CC[C@@]13C)C(=O)OC4)[C@@H]2OP(=O)([O-])[O-].[Na+].[Na+] (stereo partly drawn) [WDY7, disodium triptolide-14-β-phosphate] | cotton ball granulation in rat | effect against cotton ball granulation | significant effect |
| CC(C)[C@@]1(O)[C@H](SC#N)C2O[C@]23[C@]2(O[C@H]2C[C@H]2C4=C(CC[C@@]23C)C(=O)OC4)[C@@H]1OC(=O)CCC(=O)O (stereo partly shown) | cotton ball granulation in rat | effect against cotton ball granulation | significant effect |

---

Item-by-item account of LD50
# test.summary: in vivo
# particulars: both, Kunming, mouse, acute toxicity LD50
measured.attribute: LD50 (mg/kg)

| compound | result |
| --- | --- |
| CC(C)[C@]12O[C@H]1C1O[C@]13[C@]1(O[C@H]1C[C@H]1C4=C(CC[C@@]13C)C(=O)OC4)[C@@H]2OP(=O)([O-])[O-].[Na+].[Na+] (stereo partly drawn) [WDY7, disodium triptolide-14-β-phosphate] | 0.8 |
| CC(C)[C@]12OP(=O)([O-])O[C@H]1[C@]13O[C@H]1C[C@H]1C4=C(CC[C@]1(C)[C@@]31OC1[C@H]2SC#N)C(=O)OC4.[Na+] (some centres unmarked) | 126 |
